# tested-on: Human CXCR4 transfected HEK293 cells (Homo sapiens)
# Sequence (P61073 whole entry): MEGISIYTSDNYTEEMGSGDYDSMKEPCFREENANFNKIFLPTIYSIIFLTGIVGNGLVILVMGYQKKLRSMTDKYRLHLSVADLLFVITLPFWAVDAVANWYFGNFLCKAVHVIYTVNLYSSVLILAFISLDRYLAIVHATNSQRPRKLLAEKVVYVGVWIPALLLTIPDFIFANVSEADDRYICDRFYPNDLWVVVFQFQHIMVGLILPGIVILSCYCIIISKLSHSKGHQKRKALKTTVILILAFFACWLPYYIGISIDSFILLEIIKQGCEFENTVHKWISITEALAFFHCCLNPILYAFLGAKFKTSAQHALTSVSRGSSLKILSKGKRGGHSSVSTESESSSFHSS
# assay-text: CXCR4 functional calcium assay (calcium flux FLIPR, antagonism of SDF1 response)
# assay-context: CXCR4 functional activity, antagonism of SDF1 (EC50 concentration), read-out: CXCR4 fKi
pKi: −log10 of the molar value.
pKi values, listed per item

Here are 3 compounds together with their reported answers.
compound: CC(C)N1CCC(N2CCCN(c3cccc(C(=O)NCc4ncco4)n3)CC2)CC1
pKi: 7.00 to 7.70
//
compound: CCCc1nc(-c2cccc(N3CCCN(C4CCN([C@H](C)CC)CC4)CC3)n2)no1
pKi: 6.30 to 7.00
//
compound: COCc1nc(-c2cccc(N3CCCN(C4CCN(C(C)C)CC4)CC3)n2)no1
pKi: 6.30 to 7.00

Entry "O=C(Nc1ccncc1)c1cccc(N2CC[C@@H](NC[C@@H]3CCN(C4CCCC4)C3)C2)n1" : reported pKi = ?
> 7.70

---

pKi values, listed per item
# tested-on: Human CXCR4 transfected HEK293 cells (Homo sapiens)
# assay-text: CXCR4 functional calcium assay (calcium flux FLIPR, antagonism of SDF1 response)
# assay-context: CXCR4 functional activity, antagonism of SDF1 (EC50 concentration), read-out: CXCR4 fKi
pKi: −log10 of the molar value.

Here are 5 compounds together with their reported answers.
compound: CC(C)N1CCC(N2CCCN(c3cccc(-c4cc5ccc(C#N)cc5[nH]4)n3)CC2)CC1
parameter-measured: pKi
recorded-measurement: 6.30 to 7.00

compound: CC(C)N1CCC(N2CCCN(c3cccc(-c4ncc(-c5ccccc5)[nH]4)n3)CC2)CC1
parameter-measured: pKi
recorded-measurement: 6.30 to 7.00

compound: CC(C)N1CCC(N2CC3CCC2CN(c2cccc(C(=O)Nc4ccncc4)n2)C3)CC1 (stereo not shown)
parameter-measured: pKi
recorded-measurement: 7.00 to 7.70

compound: C[C@H](c1ccccc1)N1CCC(N2CCCN(c3cccc(C(=O)NCc4cccnc4)n3)CC2)CC1
parameter-measured: pKi
recorded-measurement: 7.00 to 7.70

compound: CC(C)N1CCC(N2CCCN(c3cccc(C(=O)NCc4ccccn4)n3)CC2)CC1
parameter-measured: pKi
recorded-measurement: 7.00 to 7.70

Notebook entry, Human CXCR4 transfected HEK293 cells (Homo sapiens) assay: pKi of "[2H]C1([2H])CCN(C2CCN(C(C)C)CC2)CCN1c1cccc(C(=O)NCC2CC2)n1" = ?
7.00 to 7.70

Notebook entry, Human CXCR4 transfected HEK293 cells (Homo sapiens) assay: pKi of "CC(C)N1CCO[C@H](CN2CCCN(c3cccc(C(=O)Nc4ccncc4)n3)CC2)C1" = ?
7.00 to 7.70

Notebook entry, Human CXCR4 transfected HEK293 cells (Homo sapiens) assay: pKi of "[2H]C1([2H])CCN(c2cccc(C(=O)Nc3ccncc3)n2)CCN1C1CCN([C@@H](C)C(F)(F)F)CC1" = ?
> 7.70

Notebook entry, Human CXCR4 transfected HEK293 cells (Homo sapiens) assay: pKi of "O=C(Nc1ccncc1)c1cccc(N2CCCN(Cc3ccc(F)cc3Cl)CC2)n1" = ?
6.30 to 7.00

Notebook entry, Human CXCR4 transfected HEK293 cells (Homo sapiens) assay: pKi of CC(C)N1CCCC(NCCNc2cccc(C(=O)Nc3ccncc3)n2)CC1 (stereo not shown) = ?
6.30 to 7.00

Notebook entry, Human CXCR4 transfected HEK293 cells (Homo sapiens) assay: pKi of O=C(NCC1CC1)c1cccc(N2CCCN(C3CCN(C4CCOC4)CC3)CC2)n1 (stereo not shown) = ?
6.30 to 7.00

Notebook entry, Human CXCR4 transfected HEK293 cells (Homo sapiens) assay: pKi of O=C(Nc1ccncc1)c1cccc(N2CC3CCC(C2)N(C2CCN(Cc4ccccc4Cl)CC2)C3)n1 (stereo not shown) = ?
6.30 to 7.00

Notebook entry, Human CXCR4 transfected HEK293 cells (Homo sapiens) assay: pKi of "CC(C)N1CCC(N2CCCN(c3cccc(C(=O)NCC4CC4)n3)CC2)CC1" = ?
> 7.70
